Listed next: entries and their corresponding polymerase ribozyme fitness (log ratio).
B1: TPR t1 (parent)
chain: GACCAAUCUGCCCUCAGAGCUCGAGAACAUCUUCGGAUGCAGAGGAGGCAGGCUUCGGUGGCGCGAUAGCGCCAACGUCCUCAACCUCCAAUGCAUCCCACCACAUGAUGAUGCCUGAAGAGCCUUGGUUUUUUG

Variants of: B1
Assay: polymerase ribozyme fitness, log enrichment relative to wild type (log ratio); higher = more active; in vitro selection for triplet polymerase activity
Give the figure only, with no unit attached.

GACCAAUCUGCCCUCAGAGCUCGAGAACAUCUUCGGAUGCAGAGGAGGCAGGCUUCGGUGGCGCGAUAGCGCCAACGUCCUCAACCUCCAAUGCAUCCCACCACAUGAUGAUGUCUCAAGAGCCUUGGUUUUUUG: -7.14

// lookup polymerase ribozyme fitness (log ratio) for GACCAAUCUGGCCUCAGACCUCGAGAACAUCUUCGGAUGCAGAGGAGGCAGGCUUCGGUGGCGCGAUAGCGCGAACGUCCUCAACCUCCAAUGCAUCCCACCACAUGAUGAUGCCUGAAGAGCCUUGGUUUUUUG
-3.75

Using the record for GACCAAUCUGCCCUCAGAGCUCGAGAACAUCUUCGGAUGCAGAGGAGGCAGGCUUCGGUGGCGCGAUAGCGCCAACGUCCUCAACCCCCAAUGCUUCCCACAACAUGAUGAUGCCUGAAGAGCAUUGCUUUUUUG , report its polymerase ribozyme fitness (log ratio).
-3.08

Can you share its polymerase ribozyme fitness (log ratio)? I mean this variant: GAUCAAUCUGCCCUCAGAGCUCGAGAACAUCUUCGGAUGCAGAGUAGGCAGGCUACGGUAGCGCGAUAGCGCCAACGUCCACAACCUCCAAUGCAUCCCACCACAUGAUGAUGCCUGAAGAGCCUUGGUUUUUUG
-1.52

Give its polymerase ribozyme fitness (log ratio) value. Item: GUCCAAUCUGCCCUCAGAGCUCGAGAACAUCUUCGGAUGCAGAGGAGGCAGGCUUCGGUGGCGCGAUAGCGCCAACGUCCUUAACGUCCAAUGCAUCCCACCACAUGAUGAUGCCUGAAGGGCCUUGGUUUUUUG
-0.832

I am curious: what polymerase ribozyme fitness (log ratio) value has been reported for GACCAAUCUGCCCUGAGAGCUCGAGAACAUCUUCGGAUGCAGAGGAGGCUGGCUUCGGUGGCGCGAUAGCGCCAACGUCCUCAACCUCCAAUGCAUCCCACCACAUGAUGAUGCCUGAAGAGCCUUGGUUUUUUG ?
-3.73

// returns reported polymerase ribozyme fitness (log ratio) for input GACCAAUCUGCCCUCAGAGCUCGAGAACAUCUUCGGAUGCAGAGGAGGCAGGCUUCGGCGGCGCGAUAGCGCCAACGUCCUCACCCUCCAAUGCAUCCCACCACAUGAUGAUGCCUGAAGAGCCUUGGUUUUUUG
-0.231

For the variant GACCAAUCUGCCCUCAGAGCUCGAGAACAUCUUCGGAUGCAGAGGAGGCAGGCUUCGGUGGCGCGAUAGCGCCAACGUGCUCAACCUCCAAUGGAUCCCACCACAUGAUGAUACCUGAAGAGCCUUGGUUUUUUG , what polymerase ribozyme fitness (log ratio) is on record?
-5.05

What polymerase ribozyme fitness (log ratio) value was documented for this variant, GACCAAUCUGCCCUCAGAGCUCGAGAACAUCUUCGGAUGCAGCGGAGGCAGGCUUCGGUGGCGCGAUAGCUCCAACGUCUUCAACCUCCAAUGCAUCCCACCACAUGAUAAUUCCUGAAGAGCCUUGGUUUUUUG ?
-7.29

Name the recorded polymerase ribozyme fitness (log ratio) for GAUCAAUCUGCCCUCAGAGCUCGAGAACAUCUUCGGAUGCAGAGGAGGCAGGCUUCGGUGUCGCGAUAGCGCCAACGUCCUCAAUCUCCAAUGCAUCCCAACACAUGAUGAUGCCUGAAGAGCCUUGGUUUUUUG .
-2.34

For GACCAAUCUGCCCUCAGAGCUCGAGAACAUCUUCGGAUGCAGAGGAGGCAGGCCUCGGUGGCGCGAUAGCGCCAACGUCCUCAACCUCCAAUGCAUCCCACCACAUGAUGAUGCAUGAAGAAACUUGGUUAUUUG , what is its reported polymerase ribozyme fitness (log ratio)?
-1.4

// lookup polymerase ribozyme fitness (log ratio) for GACCAAUCUGCCCUCAGAGCUCGAGAACAUCUUCGGAUGCAGAGGAGGCAGGCUUCGGUGGCGCGAUAGCGCCAACGUCCUCAACCUCCAAUGCAUCCCACCACAUGAUGAUGCUUAAAGAGCCUUGGUUUUUUG
-1.61

Quick one: polymerase ribozyme fitness (log ratio) of GACCAAUCUGCCCUCUGAGCUCGAGAACAUCUUCGGAUGCAGAGGAGGCAGGCUUCGGUGGCGCGAUAGCGCCAACGUCCUCAACCUCCAAUGCAUCCCACAACAUGAUGAUGCCUGAAGAGCCUUGGUUUUUUG ?
-3.35

// lookup polymerase ribozyme fitness (log ratio) for GACCAAUCUGCCCUCAGAGCUCGAGAACAUCUUCGGAUGCAGAGGAGGCAGGCUUAGGUGGCGCGAUAGCGCCAACGUCCUCAACCUCCAAUGCAACCCACCACAUGAUGAUGCCUGAAGAGCCUUGGUUUUUUG
-1.63

Given the entry GACCAAUCUGCCAUCAGAGCUCGAGAACAUCUUCGGAUGCAGCGGAGGCAGGCUUCGGUGGCGCGAUAGCGCCAACGUCCUCGACCUCCAAUGCAUCCCACAACAUGAUAAUGCCUGAAGAGCCUUGGCUUUUUG , report its measured polymerase ribozyme fitness (log ratio).
-6.67

Recorded polymerase ribozyme fitness (log ratio) for GACCAUUCUGCCCUCUGAGCUCGAGAACAUCUUCGGAUGGAGAGGAGGCAGGCUUAGGUGGCGCGAUAGCGCCAACGUCCUCAACCUCCAAUGCAUCCCACCACAUGAUGAUGCCUGAAGAGCCUUGGUUUUUUG , please?
-3.22

// returns reported polymerase ribozyme fitness (log ratio) for input GACCAAUCUGCCCUCAGAGCUCGAGAACAUCUUCGGAUGCAGAUGAGGCAGGCUUCGGUGGCGCGAUAGCGCCAACGUCCUUAACCUCAAAUGCAUCCCACCACAUGAUGAUGCCUGAAGAGCAUUGGUUUUUUG
1.91

Would you mind telling me what polymerase ribozyme fitness (log ratio) value was observed for GUCCAAUCUGCCCUCAGAGCUCGAGAACAUCUUCGGAUGCAGAGGAGGCAGGCUUCGGUGGCGCGAUAGCGCCAACGUCCUCAACCUCCAAUGCAUCCCACCACAUGAUGAUUCCUGAAGAGCCUUGGUUUUUUG ?
-4.15
